Listed compounds paired with reported inhibition at 20 µM
# system.under.test: UniProt H0VYV8
# Sequence (H0VYV8 1-348): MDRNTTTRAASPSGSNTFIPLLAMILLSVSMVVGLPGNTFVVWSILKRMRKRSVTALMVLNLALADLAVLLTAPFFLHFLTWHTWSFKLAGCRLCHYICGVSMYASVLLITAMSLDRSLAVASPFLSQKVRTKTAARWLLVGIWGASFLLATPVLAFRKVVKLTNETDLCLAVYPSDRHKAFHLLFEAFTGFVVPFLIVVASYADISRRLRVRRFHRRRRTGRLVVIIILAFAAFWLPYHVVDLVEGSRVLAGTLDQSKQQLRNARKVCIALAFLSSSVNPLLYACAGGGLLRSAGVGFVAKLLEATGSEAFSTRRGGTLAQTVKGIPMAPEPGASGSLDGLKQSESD
# test.details: LTB4 receptor binding study
# experimental.conditions: at 20 μM; 3H-LTB4, guinea-pig spleen membranes; read-out: Inh. of LTB4 rec. binding, %
# Method: LTB4 Receptor Binding Study A slightly modified method of Cheng and coworkers (Cheng J. B. et al.: J. Pharm. Expl. Ther. 236, 126 (1986)) was used. […] The nonspecific binding was determined in the presence of 0.1 μM LTB4. […] The radioactivity was measured by liquid scintillation spectrometry, and the specific binding of ^3 H-LTB4 to the receptor was determined.
quantity.kind: inhibition at 20 µM (%)

1. O=C(O)c1ccccc1Sc1ccc(OCCCN2CCN(Cc3ccc(Cl)cc3)CC2)cc1 = 28
2. CCCc1c(OCCCCOc2ccc(Sc3ccccc3CC(=O)O)cc2)ccc(C(C)=O)c1O = 29
3. CC(c1cc2ccccc2s1)N(O)C(N)=O (stereo not shown) [Zileuton, reference compound] = 28
4. O=C(O)Cc1ccccc1Sc1ccc(OCCCN2CCN(Cc3ccc(Cl)cc3)CC2)cc1 = 12
